Every entry's value here was drawn from ChEMBL document CHEMBL1140044.

System: Human immunodeficiency virus 2
method: Antiviral activity against HIV2 ROD in MT4 cells assessed as inhibition of virus-induced cytopathogenicity by MTT assay
Assay type: functional, organism-based
condition_set: Human immunodeficiency virus 2, ROD
Give measured EC50 for each item. Keep answers brief.
One number for each entry, in µg/mL.

// known answers, use as guide
>>> measured("Cn1cc(C(=O)O)c(=O)c2ccc(N3CCN(c4nc5ccccc5o4)CC3)cc21")
11.9
>>> measured("Cn1cc(C(=O)O)c(=O)c2ccc(N3CCN(c4cnccn4)CC3)cc21")
16.4
>>> measured("Cn1cc(C(=O)O)c(=O)c2cc(N)c(N3CCN(c4ccc5ccccc5n4)CC3)cc21")
0.022
>>> measured("Nc1cc2c(=O)c(C(=O)O)c[nH]c2cc1N1CCN(c2ccccn2)CC1")
0.16
>>> measured("Nc1cc2c(=O)c(C(=O)O)c[nH]c2cc1N1CCN(c2cccc(C(F)(F)F)c2)CC1")
0.46
>>> measured("Nc1cc2c(=O)c(C(=O)O)c[nH]c2cc1N1CCN(c2nccs2)CC1")
1.92
>>> measured("Cn1cc(C(=O)O)c(=O)c2cc(N)c(N3CCN(c4ccccn4)CC3)cc21")
0.097
>>> measured("Cn1cc(C(=O)O)c(=O)c2ccc(N3CCN(c4nccs4)CC3)cc21")
12.7

Take each entry in turn and give its EC50.
1. Cn1cc(C(=O)O)c(=O)c2ccc(N3CCN(c4nc5ccccc5s4)CC3)cc21
2. Cn1cc(C(=O)O)c(=O)c2cc(N)c(N3CCN(c4cnc5ccccc5n4)CC3)cc21
3. Nc1cc2c(=O)c(C(=O)O)c[nH]c2cc1N1CCN(c2nc3ccccc3o2)CC1
4. Cn1cc(C(=O)O)c(=O)c2ccc(N3CCN(c4cccc(C(F)(F)F)c4)CC3)cc21

**Result**
0.04
0.19
0.28
0.13

###

method: Selectivity index, ratio of CC50 for human CEM cells to EC50 for HIV1 3B
Assay type: toxicity, cell-based, CCRF-CEM
condition_set: read-out: Ratio CC50/EC50
experimental_readout: selectivity ratio

// known answers, use as guide
>>> measured("Cn1cc(C(=O)O)c(=O)c2cc(N)c(N3CCN(c4cnc5ccccc5n4)CC3)cc21")
"> 80"
>>> measured("Cn1cc(C(=O)O)c(=O)c2cc(N)c(N3CCN(c4ccccn4)CC3)cc21")
"> 3330"
>>> measured("Cn1cc(C(=O)O)c(=O)c2ccc(N3CCN(c4cnccn4)CC3)cc21")
"> 3"
>>> measured("Cn1cc(C(=O)O)c(=O)c2ccc(N3CCN(c4ccccn4)CC3)cc21")
"> 83"
>>> measured("Cn1cc(C(=O)O)c(=O)c2ccc(N3CCN(c4nccs4)CC3)cc21")
"≥ 38"

As a next step, examine the compound that follows.
**Query** Report selectivity ratio for `Cn1cc(C(=O)O)c(=O)c2ccc(N3CCN(c4nc5ccccc5o4)CC3)cc21` please.
**Result** > 30

###

Give measured selectivity ratio for each item. Keep answers brief.
method: Selectivity index, ratio of CC50 for human CEM cells to EC50 for HIV2 ROD
Type: toxicity, cell-based, CCRF-CEM
condition_set: read-out: Ratio CC50/EC50

>>> measured("Cn1cc(C(=O)O)c(=O)c2ccc(N3CCN(c4nc5ccccc5o4)CC3)cc21")
"> 7"
>>> measured("Cn1cc(C(=O)O)c(=O)c2ccc(N3CCN(c4nccs4)CC3)cc21")
"≥ 12"
>>> measured("Cn1cc(C(=O)O)c(=O)c2cc(N)c(N3CCN(c4cnc5ccccc5n4)CC3)cc21")
"> 14"
>>> measured("Cn1cc(C(=O)O)c(=O)c2ccc(N3CCN(c4cnccn4)CC3)cc21")
"> 2"
>>> measured("Nc1cc2c(=O)c(C(=O)O)c[nH]c2cc1N1CCN(c2ccccn2)CC1")
53

Take each entry in turn and give its selectivity ratio.
1. Cn1cc(C(=O)O)c(=O)c2ccc(N3CCN(c4ccccn4)CC3)cc21
2. Cn1cc(C(=O)O)c(=O)c2ccc(N3CCN(c4nc5ccccc5s4)CC3)cc21
3. Cn1cc(C(=O)O)c(=O)c2cc(N)c(N3CCN(c4ccc5ccccc5n4)CC3)cc21

**Result**
> 56
104
55

###

Give measured selectivity ratio for each item. Keep answers brief.
method: Selectivity index, ratio of CC50 for human MT4 cells to EC50 for HIV2 ROD
Format: toxicity, cell-based
condition_set: read-out: Ratio CC50/EC50

// known answers, use as guide
>>> measured("Cn1cc(C(=O)O)c(=O)c2cc(N)c(N3CCC(c4ccccn4)C3)cc21 (stereo not given)")
"< 1"
>>> measured("Cn1cc(C(=O)O)c(=O)c2ccc(N3CCN(c4nccs4)CC3)cc21")
"> 10"
>>> measured("Cn1cc(C(=O)O)c(=O)c2ccc(N3CCN(c4ccccn4)CC3)cc21")
"< 1"
>>> measured("Cc1cccc(Sc2cc3c(cc2N)c(=O)c(C(=O)O)cn3C)c1")
"< 1"

Take each entry in turn and give its selectivity ratio.
1. Cn1ccc(=O)c2cc(N)c(N3CCN(c4ccccn4)CC3)cc21
2. Cn1cc(C(=O)O)c(=O)c2ccc(N3CCN(c4nc5ccccc5o4)CC3)cc21
3. Cn1cc(C(=O)NCc2ccc(F)cc2F)c(=O)c2cc(N)c(N3CCN(c4ccccn4)CC3)cc21
4. Cn1ccc(=O)c2cc(N)c(N3CCN(c4nccs4)CC3)cc21

**Result**
< 1
> 11
< 1
< 1

Take each entry in turn and give its selectivity ratio.
1. CO/N=C(\C)c1cn(C)c2cc(N3CCN(c4ccccn4)CC3)c(N)cc2c1=O
2. Cn1ccc(=O)c2cc(N)c(N3CCN(c4nc5ccccc5o4)CC3)cc21

**Result**
< 1
< 1

###

Give measured CC50 at 120 h for each item. Keep answers brief.
method: Cytotoxicity against mock-infected human MT4 cells after 5 days by MTT assay
Assay type: cell-based
Give bare numbers, in µg/mL.

// known answers, use as guide
>>> measured("Cn1ccc(=O)c2cc(N)c(N3CCN(c4nc5ccccc5o4)CC3)cc21")
72.1
>>> measured("Cn1cc(C(=O)O)c(=O)c2ccc(N3CCN(c4cccc(C(F)(F)F)c4)CC3)cc21")
2.61
>>> measured("Cn1cc(C(=O)O)c(=O)c2cc(N)c(N3CCN(c4cnc5ccccc5n4)CC3)cc21")
3.2

Take each entry in turn and give its CC50 at 120 h.
1. Nc1cc2c(=O)c(C(=O)O)c[nH]c2cc1N1CCN(c2cccc(C(F)(F)F)c2)CC1
2. Cn1cc(C(=O)O)c(=O)c2cc(N)c(N3CCN(c4ccccn4)CC3)cc21
3. Cn1cc(C(=O)O)c(=O)c2cc(N)c(N3CCN(c4ccc5ccccc5n4)CC3)cc21
4. CCN(CCNc1cc2c(cc1N)c(=O)c(C(=O)O)cn2C)c1ccccn1
5. Nc1cc2c(=O)c(C(=O)O)c[nH]c2cc1N1CCN(c2ccccn2)CC1
6. Cn1ccc(=O)c2cc(N)c(N3CCN(c4nccs4)CC3)cc21
7. Cn1cc(C(=O)NCc2ccc(F)cc2F)c(=O)c2cc(N)c(N3CCN(c4ccccn4)CC3)cc21

**Result**
[1.64, 0.84, 0.21, 16.9, 2.16, 89.5, 32.2]

Take each entry in turn and give its CC50 at 120 h.
1. Cn1cc(C(=O)O)c(=O)c2ccc(N3CCN(c4ccccn4)CC3)cc21
2. Cn1ccc(=O)c2cc(N)c(N3CCN(c4ccccn4)CC3)cc21
3. Cn1cc(C(=O)O)c(=O)c2ccc(N3CCN(c4nc5ccccc5s4)CC3)cc21
4. Nc1cc2c(=O)c(C(=O)O)c[nH]c2cc1N1CCN(c2nc3ccccc3o2)CC1

**Result**
65.5
105
0.44
1.95

###

method: Selectivity index, ratio of CC50 for human MT4 cells to EC50 for HIV1 3B
Type: toxicity, cell-based
condition_set: read-out: Ratio CC50/EC50
Give measured selectivity ratio for each item. Keep answers brief.

// known answers, use as guide
>>> measured("Cn1cc(C(=O)O)c(=O)c2ccc(N3CCN(c4cnccn4)CC3)cc21")
"> 2"
>>> measured("Cn1cc(C(=O)O)c(=O)c2cc(N)c(N3CCC(c4ccccn4)C3)cc21 (stereo not drawn)")
"< 1"

**Query** Report selectivity ratio for `Cn1ccc(=O)c2cc(N)c(N3CCN(c4nc5ccccc5o4)CC3)cc21` please.
**Result** < 1

###

Test system: Human immunodeficiency virus 2
method: Antiviral activity against HIV2 ROD in MT4 cells assessed as inhibition of virus-induced cytopathogenicity by MTT assay
Assay type: functional, organism-based
condition_set: Human immunodeficiency virus 2, ROD
experimental_readout: EC50

>>> measured("Cn1cc(C(N)=O)c(=O)c2cc(N)c(N3CCN(c4ccccn4)CC3)cc21")
"> 125 µg/mL"
>>> measured("Cn1ccc(=O)c2cc(N)c(N3CCN(c4ccccn4)CC3)cc21")
"> 104 µg/mL"
>>> measured("Cn1ccc(=O)c2cc(N)c(N3CCN(c4nc5ccccc5o4)CC3)cc21")
"> 72.1 µg/mL"
>>> measured("Cn1cc(C(=O)O)c(=O)c2cc(N)c(N3CCNCC3)cc21")
"> 94 µg/mL"
>>> measured("Cn1cc(C(=O)O)c(=O)c2cc(N)c(N3CCC(c4ccccn4)C3)cc21 (stereo unspecified)")
"> 90.8 µg/mL"
>>> measured("Cc1cccc(Sc2cc3c(cc2N)c(=O)c(C(=O)O)cn3C)c1")
"> 2 µg/mL"
>>> measured("Cn1cc(C(=O)O)c(=O)c2cc(N)c(N3CCN(Cc4ccccn4)CC3)cc21")
"> 125 µg/mL"
>>> measured("Cn1cc(C(=O)O)c(=O)c2cc(N)c(N3CCC(c4ccccn4)CC3)cc21")
"> 125 µg/mL"

Take each entry in turn and give its EC50.
1. Cn1cc(C(=O)NCc2ccc(Cl)cc2)c(=O)c2cc(N)c(N3CCN(c4ccccn4)CC3)cc21
2. CO/N=C(\C)c1cn(C)c2cc(N3CCN(c4ccccn4)CC3)c(N)cc2c1=O
3. Cn1cc(C(=O)O)c(=O)c2ccc(N3CCN(c4ccccn4)CC3)cc21
4. CCN(CCNc1cc2c(cc1N)c(=O)c(C(=O)O)cn2C)c1ccccn1
5. Cn1ccc(=O)c2cc(N)c(N3CCN(c4nccs4)CC3)cc21
6. Cn1cc(C(=O)NCc2ccc(F)cc2F)c(=O)c2cc(N)c(N3CCN(c4ccccn4)CC3)cc21

**Result**
1. > 125 µg/mL
2. > 92.6 µg/mL
3. > 65.5 µg/mL
4. > 16.9 µg/mL
5. > 89.5 µg/mL
6. > 32.2 µg/mL

Take each entry in turn and give its EC50.
1. CC(=O)c1cn(C)c2cc(N3CCN(c4ccccn4)CC3)c(N)cc2c1=O
2. C/C(=N\O)c1cn(C)c2cc(N3CCN(c4ccccn4)CC3)c(N)cc2c1=O

**Result**
1. > 125 µg/mL
2. > 125 µg/mL
